The entries below come with measured pIC50 values attached.
# Measured target: JAK2 (Homo sapiens, UniProt O60674)
# Construct: purchased Carna Biosciences
# Sequence (O60674 whole entry): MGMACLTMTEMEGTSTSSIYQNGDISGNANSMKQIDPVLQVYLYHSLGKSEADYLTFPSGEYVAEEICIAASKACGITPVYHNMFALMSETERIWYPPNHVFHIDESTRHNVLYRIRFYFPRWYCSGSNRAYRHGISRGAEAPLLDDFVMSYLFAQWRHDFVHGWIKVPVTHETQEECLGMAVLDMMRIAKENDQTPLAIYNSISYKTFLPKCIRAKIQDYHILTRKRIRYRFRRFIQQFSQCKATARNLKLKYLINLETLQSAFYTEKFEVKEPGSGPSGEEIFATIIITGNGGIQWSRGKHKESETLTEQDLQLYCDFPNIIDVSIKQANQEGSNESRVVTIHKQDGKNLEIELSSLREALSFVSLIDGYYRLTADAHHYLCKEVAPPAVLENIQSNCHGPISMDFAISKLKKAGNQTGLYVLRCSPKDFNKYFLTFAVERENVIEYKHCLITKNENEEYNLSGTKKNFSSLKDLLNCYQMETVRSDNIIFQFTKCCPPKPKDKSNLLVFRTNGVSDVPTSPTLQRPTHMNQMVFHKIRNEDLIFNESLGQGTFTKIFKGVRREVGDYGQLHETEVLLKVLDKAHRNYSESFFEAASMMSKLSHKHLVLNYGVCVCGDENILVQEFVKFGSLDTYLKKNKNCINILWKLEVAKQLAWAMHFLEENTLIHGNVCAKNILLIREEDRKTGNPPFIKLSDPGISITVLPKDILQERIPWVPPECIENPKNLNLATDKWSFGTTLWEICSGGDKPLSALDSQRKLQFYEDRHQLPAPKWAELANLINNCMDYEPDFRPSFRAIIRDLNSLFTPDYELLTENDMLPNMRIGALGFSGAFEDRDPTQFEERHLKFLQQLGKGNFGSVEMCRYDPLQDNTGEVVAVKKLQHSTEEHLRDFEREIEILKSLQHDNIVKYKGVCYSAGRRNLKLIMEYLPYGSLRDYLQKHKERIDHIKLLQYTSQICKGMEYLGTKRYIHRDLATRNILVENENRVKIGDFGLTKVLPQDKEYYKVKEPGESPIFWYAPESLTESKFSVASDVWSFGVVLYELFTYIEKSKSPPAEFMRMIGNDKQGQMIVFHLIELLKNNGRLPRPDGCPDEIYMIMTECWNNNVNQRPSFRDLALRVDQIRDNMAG
# Assay name: JAK2 microfluidic kinase assay (Caliper EZ Reader II, FAM labeled peptide substrate)
# Format: biochemical
# Details: IC50 JAK2 ([…]) (Km ATP), Km ATP
As a rule, pIC50 stands for the negative log10 of the concentration, concentration in M.

Some solved cases for reference:
# compound Cc1cnc(Nc2cnn(C3CCOCC3)c2)nc1-c1ccc(C(=O)NCC2(C#N)CC2)cc1 ; its pIC50 = 9.27

Briefly, pIC50 measured for Cc1cnc(Nc2cnn(C)c2)nc1-c1ccc(C(=O)NCCC#N)cc1 : 8.75

So, Cc1cnc(Nc2cnn(C3CC3)c2)nc1-c1ccc(C(=O)NCC#N)cc1 ? Its pIC50 was 9.16

Would you kindly look at the next entry?
The recorded pIC50 for Cc1cnc(Nc2cnn(C)c2)nc1-c1ccc(C(=O)N[C@@H](C)C#N)cc1 is 9.07

----------
# Assay name: Liver microsomes study, Phase I stability (RLM)
# Assay type: in vitro ADME, rat
# Details: pH 7.4; rat liver microsomes 0.5 mg/mL, 1 μM test article; read-out: RLM Clint
Readout kind: microsomal CLint at 1 μM
# answer = value followed by unit

Some entries whose results are on file:
Looking up Cc1cnc(Nc2cnn(C3CCN(CC(F)F)CC3)c2)nc1-c1ccc(C(=O)NCC#N)cc1 , I see its microsomal CLint at 1 μM listed as 49.2 µL/min/mg

Cc1cnc(Nc2cnn(C(C)C(F)(F)F)c2)nc1-c1ccc(C(=O)NCC#N)cc1 (centres unmarked) yielded microsomal CLint at 1 μM of 76.4 µL/min/mg

Reported microsomal CLint at 1 μM ( C[C@@H](C#N)NC(=O)c1ccc(-c2nc(Nc3cnn(C4CCNCC4)c3)ncc2Cl)cc1 ) = 26 µL/min/mg

Recorded microsomal CLint at 1 μM (molecule C[C@@H](C#N)NC(=O)c1ccc(-c2nc(Nc3cnn(C)c3)ncc2Cl)cc1 ): 28.4 µL/min/mg

Noted for Cc1cnc(Nc2cnn(C3CCN(C(=O)C4CC4)CC3)c2)nc1-c1ccc(C(=O)NCC#N)nc1 : its microsomal CLint at 1 μM reads 80.8 µL/min/mg

Consider Cn1cc(Nc2ncc(Cl)c(-c3ccc(C(=O)NCC#N)cc3)n2)cn1 . Its measured microsomal CLint at 1 μM is 31.6 µL/min/mg

Just so you know, measured microsomal CLint at 1 μM for Cc1cnc(Nc2cnn(C3CCN(C(=O)C(C)(C)O)CC3)c2)nc1-c1ccc(C(=O)NCC#N)cc1 came out at 17.1 µL/min/mg

Now let's try a different one.
Cc1cnc(Nc2cnn(C(C)C(F)(F)F)c2)nc1-c1ccc(C(=O)N[C@@H](C)C#N)cc1 (some centres unmarked) has a reported microsomal CLint at 1 μM of 161 µL/min/mg

----------
Reported values of pIC50 for individual entries
# Measured target: JAK1 (Homo sapiens)
# Construct: purchased Carna Biosciences
# Sequence (P23458 whole entry): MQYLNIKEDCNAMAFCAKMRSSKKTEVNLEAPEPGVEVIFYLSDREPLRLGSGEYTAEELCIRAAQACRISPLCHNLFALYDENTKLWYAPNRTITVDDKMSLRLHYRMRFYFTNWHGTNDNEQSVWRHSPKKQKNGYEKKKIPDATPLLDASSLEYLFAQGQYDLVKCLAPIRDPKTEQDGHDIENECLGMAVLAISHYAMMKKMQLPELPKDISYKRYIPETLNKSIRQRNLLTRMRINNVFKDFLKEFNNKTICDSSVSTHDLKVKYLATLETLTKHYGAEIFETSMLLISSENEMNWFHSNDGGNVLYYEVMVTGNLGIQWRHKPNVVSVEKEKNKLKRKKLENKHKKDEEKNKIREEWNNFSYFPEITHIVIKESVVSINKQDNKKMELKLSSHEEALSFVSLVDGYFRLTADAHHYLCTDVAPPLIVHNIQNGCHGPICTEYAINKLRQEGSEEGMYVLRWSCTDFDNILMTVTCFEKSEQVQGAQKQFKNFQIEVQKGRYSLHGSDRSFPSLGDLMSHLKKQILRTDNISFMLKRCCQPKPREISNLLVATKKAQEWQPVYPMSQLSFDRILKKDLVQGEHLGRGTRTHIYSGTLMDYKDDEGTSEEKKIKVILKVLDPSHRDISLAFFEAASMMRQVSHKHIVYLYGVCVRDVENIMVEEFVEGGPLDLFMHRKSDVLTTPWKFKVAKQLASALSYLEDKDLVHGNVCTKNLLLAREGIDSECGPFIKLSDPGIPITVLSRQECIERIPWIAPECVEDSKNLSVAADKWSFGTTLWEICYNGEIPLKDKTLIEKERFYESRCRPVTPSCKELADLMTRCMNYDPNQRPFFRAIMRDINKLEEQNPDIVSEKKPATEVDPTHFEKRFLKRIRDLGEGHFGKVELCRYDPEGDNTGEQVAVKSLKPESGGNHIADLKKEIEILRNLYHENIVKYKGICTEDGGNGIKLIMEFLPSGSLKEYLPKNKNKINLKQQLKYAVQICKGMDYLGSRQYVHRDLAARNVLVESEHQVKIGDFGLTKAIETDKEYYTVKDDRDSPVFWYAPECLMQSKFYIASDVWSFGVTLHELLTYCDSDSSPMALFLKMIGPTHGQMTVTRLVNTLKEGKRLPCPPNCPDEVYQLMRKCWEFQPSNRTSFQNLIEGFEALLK
# Assay name: JAK1 microfluidic kinase assay (Caliper EZ Reader II, FAM labeled peptide substrate)
# Format: biochemical
# Details: IC50 JAK1 (5 nM) (1 m MATP), JAK1 5 nM, 1 mM ATP
pIC50 (log units): -log10 of the concentration in mol/L.

Some compounds with recorded pIC50:
Record Cc1cnc(Nc2cnn(C3CCN(C(=O)[C@H]4CC4(C)C)CC3)c2)nc1-c1ccc(C(=O)NCC#N)cc1 . Reported pIC50: 7.81

// recorded pIC50 for Cc1cnc(Nc2cnn(C3CCN(C(=O)C45CC(C4)C5)CC3)c2)nc1-c1ccc(C(=O)NCC#N)cc1 : 7.90

The compound listed as CN1CCC(n2cc(Nc3ncc(Cl)c(-c4ccc(C(=O)NCC#N)cc4)n3)cn2)CC1 shows pIC50 equal to 8.18

Sure, the documented pIC50 for Cc1cnc(Nc2cnn(C3CCN(C(=O)C4CC4)CC3)c2)nc1-c1ccc(C(=O)N[C@@H](C)C#N)nc1 is 7.14

***
Short answer for Cc1cnc(Nc2cnn([C@H]3C[C@@H](C)N[C@@H](C)C3)c2)nc1-c1ccc(C(=O)N[C@@H](C)C#N)cc1 : pIC50 was 8.00

# pIC50 of Cc1cnc(Nc2cnn(C3CCN(C(=O)NC(C)(C)C)CC3)c2)nc1-c1ccc(C(=O)NCC#N)cc1 = 7.77

Recorded result, Cc1cnc(Nc2cnn(C3CCNCC3)c2)nc1-c1ccc(C(=O)N[C@@H](C)C#N)cc1 , pIC50: 8.18

So, Cc1cnc(Nc2cnn(C3CC3)c2)nc1-c1ccc(C(=O)NCC#N)cc1 ? Its pIC50 was 7.95

The measured pIC50 associated with Cc1cnc(Nc2cnn(C3CC(C)(C)OC(C)(C)C3)c2)nc1-c1ccc(C(=O)N[C@@H](C)C#N)cc1 reads 7.82

Reported pIC50 ( Cc1cnc(Nc2cnn(C3CCN(C(=O)C(C)(C)C)CC3)c2)nc1-c1ccc(C(=O)NCC#N)cc1 ) = 7.96

----------
# Measured target: JAK1 (Homo sapiens)
# Construct: purchased Carna Biosciences
# Assay name: JAK1 microfluidic kinase assay (Caliper EZ Reader II, FAM labeled peptide substrate)
# Assay type: biochemical
# Details: IC50 JAK1 (5 nM) (1 m MATP), JAK1 5 nM, 1 mM ATP
# Experimental: Compounds were tested against JAK1, JAK2, JAK2V617F and TYK2. Assay Formats: JAK activity was determined in the reaction buffer 50 mM HEPES, 0.01% Brij35, 10 mM MgCl2, 2 mM DTT by a microfluidic assay. The phosphorylation of a FAM labeled peptide substrate was monitored in the Caliper EZ Reader II (Perkin Elmer). The assay condition for each batch of enzyme (Carna Biosciences) was optimized to obtain 10% conversion rate of peptide substrate. […]
Readout kind: IC50 (nM)
Numeric only. Scale: nM

Example molecules with recorded IC50:
IC50 reported for this molecule Cc1cnc(Nc2cnn(C3CCN(C(=O)C4(O)CC4)CC3)c2)nc1-c1ccc(C(=O)NCC#N)cc1 [Example 74] : 14.4

IC50 measured on Cc1cnc(Nc2cnn(C3CCN(C(=O)C(C)(C)O)CC3)c2)nc1-c1ccc(C(=O)NCC#N)cc1 [Example 51] = 8.7

// Cc1cnc(Nc2ccn(C)n2)nc1-c1ccc(C(=O)NCC#N)cc1 [Example 107] : IC50 value = 2310

# IC50 (molecule: Cn1cc(Nc2ncc(Cl)c(-c3ccc(C(=O)NCC(C)(C)C#N)cc3)n2)cn1 [Example 122] ) is 19.3

Summary for this molecule, CC[C@@H](C#N)NC(=O)c1ccc(-c2nc(Nc3cnn(C4CC4)c3)ncc2Cl)cc1 [Example 61] : IC50 is 5.81

molecule N#CCNC(=O)c1ccc(-c2nc(Nc3cnn(C4CC4)c3)ncc2Cl)cc1 [Example 95] , IC50 observed: 7.29

IC50 reported for this molecule CC[C@@H](C#N)NC(=O)c1ccc(-c2nc(Nc3cnn(C4CCOCC4)c3)ncc2C)cc1 [Example 201] : 2.22

Let us examine a further case.
The molecule CC[C@@H](C#N)NC(=O)c1ccc(-c2nc(Nc3cnn(CCC#N)c3)ncc2Cl)cc1 [Example 190] showed IC50 equal to 3.83

----------
# Measured target: JAK2V617F (Homo sapiens, UniProt O60674, V617F)
# Construct: purchased Carna Biosciences
# Sequence (O60674 whole entry V617F): as the sequence (O60674 whole entry) above, with V617F counted along it
# Assay name: JAK2V617F microfluidic kinase assay (Caliper EZ Reader II, FAM labeled peptide substrate)
# Assay type: biochemical
# Details: JAK2V617F 2.5 nM, 1 mM ATP
# Description: Compounds were tested against JAK1, JAK2, JAK2V617F and TYK2. Assay Formats: JAK activity was determined in the reaction buffer 50 mM HEPES, 0.01% Brij35, 10 mM MgCl2, 2 mM DTT by a microfluidic assay. The phosphorylation of a FAM labeled peptide substrate was monitored in the Caliper EZ Reader II (Perkin Elmer). The assay condition for each batch of enzyme (Carna Biosciences) was optimized to obtain 10% conversion rate of peptide substrate. […]
Reported values of IC50 for individual entries
API: value field is a number in nM; no unit string.

The cases that follow already have their IC50 on record.
Memo: Cc1cnc(Nc2cnn(C3CCN(C(=O)CO)CC3)c2)nc1-c1ccc(C(=O)N[C@@H](C)C#N)cc1 , reported IC50: 0.96

Recorded result, Cc1cnc(Nc2cnn(C3CCN(C(=O)C4CC4)CC3)c2)nc1-c1ccc(C(=O)NCC2(C#N)CC2)cc1 , IC50: 28.2

Moving on to another compound below.
The recorded IC50 for entry C[C@@H](C#N)NC(=O)c1ccc(-c2nc(Nc3cnn(C4CC4)c3)ncc2Cl)cc1F equals 92.3

----------
# Measured target: JAK2 (Homo sapiens, UniProt O60674)
# Construct: purchased Carna Biosciences
# Assay name: JAK2 microfluidic kinase assay (Caliper EZ Reader II, FAM labeled peptide substrate)
# Assay type: biochemical
# Details: IC50 JAK2 ([…]) (1 mM ATP), 1 mM ATP
# Method: Compounds were tested against JAK1, JAK2, JAK2V617F and TYK2. Assay Formats: JAK activity was determined in the reaction buffer 50 mM HEPES, 0.01% Brij35, 10 mM MgCl2, 2 mM DTT by a microfluidic assay. The phosphorylation of a FAM labeled peptide substrate was monitored in the Caliper EZ Reader II (Perkin Elmer). The assay condition for each batch of enzyme (Carna Biosciences) was optimized to obtain 10% conversion rate of peptide substrate. […]
Readout kind: pIC50
Please keep in mind that pIC50 is minus log10 of the molar concentration; only the number is needed.

Worked examples follow.
The reported pIC50 of the compound C[C@@H](C#N)NC(=O)c1ccc(-c2nc(Nc3cnn(CC(N)=O)c3)ncc2Cl)cc1 was 7.44

Form: compound = Cc1cnc(Nc2cnn(C3CCN(C)CC3)c2)nc1-c1ccc(C(=O)N[C@H](C)C#N)cc1 ; pIC50 = 7.15

The compound identified as Cc1cnc(Nc2cnn(CCO)c2)nc1-c1ccc(C(=O)N[C@@H](C)C#N)cc1 registered its pIC50 at 7.57

---
Given item N#CCNC(=O)c1ccc(-c2nc(Nc3cnn(C4CC4)c3)ncc2C(F)F)cc1F , the value recorded as its pIC50 is 6.34

Lab note: measured pIC50 of CC[C@@H](C#N)NC(=O)c1ccc(-c2nc(Nc3cnn(CCO)c3)ncc2Cl)cc1 was 8.36

response.value for CC[C@@H](C#N)NC(=O)c1ccc(-c2nc(Nc3cnn(CC#N)c3)ncc2C)cc1 (field: pIC50) = 7.31

[2H]c1c([2H])c(-c2nc(Nc3cnn(C4CC4)c3)ncc2Cl)c([2H])c([2H])c1C(=O)N[C@@H](C)C#N yielded pIC50 of 8.95
